# System: L1210
# Procedure Summary: Ratio of intracellular concentration to that of treatment concentration in L1210 cells
# Format: functional, Mus musculus
I would appreciate it if you labelled entries yes when Ratio is 0.7 or higher, otherwise no.

Example cases with answers are listed next.
> print(dat)
                                  compound  discrete.label
1         FC(F)(F)CNCCCNCCCCNCCCNCC(F)(F)F              no
2            Cc1c(O)c(=O)ccn1CCCNCCCCNCCCN             yes
3  CCNCCCNCCCCNCCCNCC [BIS(ETHYL)SPERMINE]             yes
4     COC(=O)c1ccc(C(=O)NCCCNCCCCNCCCN)cc1             yes
5       C[C@]1(C(=O)O)CSC(c2ccc(O)cc2O)=N1              no

Task item: Decide: is the reported value of Ratio for `NCCCNCCCCNCCCNC(=O)c1ccc(C(=O)O)cc1` equal to or greater than 0.7?
Reply: no

Task item: Decide: is the reported value of Ratio for `Cc1c(O)c(=O)ccn1C` equal to or greater than 0.7?
Reply: no
